Origin of measurements: paper PMC4336329

- target_entity: human ether-à-go-go-related gene (hERG) potassium channel (human);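 also: peak tail current of the secondary pulse compared with the same well before compound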
- Sequence (Q12809 whole entry, looked up): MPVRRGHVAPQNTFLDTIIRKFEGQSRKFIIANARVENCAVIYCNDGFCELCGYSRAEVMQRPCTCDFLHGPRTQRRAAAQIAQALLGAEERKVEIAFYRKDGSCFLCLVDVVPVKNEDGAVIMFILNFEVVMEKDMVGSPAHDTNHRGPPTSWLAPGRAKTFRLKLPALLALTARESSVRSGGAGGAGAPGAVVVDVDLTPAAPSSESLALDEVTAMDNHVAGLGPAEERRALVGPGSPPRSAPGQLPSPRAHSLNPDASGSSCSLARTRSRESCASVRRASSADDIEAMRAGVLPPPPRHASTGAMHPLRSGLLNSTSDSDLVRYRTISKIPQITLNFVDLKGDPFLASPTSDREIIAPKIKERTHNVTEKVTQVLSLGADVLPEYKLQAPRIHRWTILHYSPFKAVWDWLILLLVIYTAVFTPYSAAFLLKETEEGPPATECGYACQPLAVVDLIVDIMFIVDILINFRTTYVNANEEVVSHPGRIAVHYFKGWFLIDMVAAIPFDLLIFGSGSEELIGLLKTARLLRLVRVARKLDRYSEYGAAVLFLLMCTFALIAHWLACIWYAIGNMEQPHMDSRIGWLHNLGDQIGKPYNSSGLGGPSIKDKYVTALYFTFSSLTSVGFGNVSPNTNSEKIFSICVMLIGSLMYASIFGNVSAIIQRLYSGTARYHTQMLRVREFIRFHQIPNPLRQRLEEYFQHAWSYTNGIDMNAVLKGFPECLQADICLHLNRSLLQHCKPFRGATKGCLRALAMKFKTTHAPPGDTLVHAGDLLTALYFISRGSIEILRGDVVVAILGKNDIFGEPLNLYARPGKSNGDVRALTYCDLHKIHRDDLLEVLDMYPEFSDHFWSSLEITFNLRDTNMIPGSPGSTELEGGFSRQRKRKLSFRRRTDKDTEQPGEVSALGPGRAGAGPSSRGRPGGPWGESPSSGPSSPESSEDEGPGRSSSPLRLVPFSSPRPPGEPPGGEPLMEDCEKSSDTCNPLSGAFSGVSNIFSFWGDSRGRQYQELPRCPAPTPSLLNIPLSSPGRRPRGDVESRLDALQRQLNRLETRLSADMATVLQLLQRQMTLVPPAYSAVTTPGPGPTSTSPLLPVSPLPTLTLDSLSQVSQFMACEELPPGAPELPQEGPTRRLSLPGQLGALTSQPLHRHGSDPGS
- assay_name: primary screen, population patch clamp on CHO cells stably expressing hERG; higher = less effect of the substance
Out of some 310,000 compounds screened, about 14,000 (4.5%) showed an effect of 50% or more. Effects have a minus sign here. For the sample, strong results were picked, then their nearest neighbours and some compounds at random.
Please go through the items and note down their hERG current change (%, negative = inhibition) at 10uM.
Respond numerically; units are % and should not be typed.

Q. Supply hERG current change (%, negative = inhibition) at 10uM value. Item: "S=C(NCCCN1CCOCC1)NC1CCCC1"
A. 8.32

Q. Supply hERG current change (%, negative = inhibition) at 10uM value. Item: "O=C(CSc1nc(-c2ccc(Cl)cc2)[nH]c(=O)n1)Nc1cccc(Cl)c1"
A. 22.3

Q. Supply hERG current change (%, negative = inhibition) at 10uM value. Item: "Cc1cc(C)c(OCC(=O)Nc2cccc(NC(=O)c3ccco3)c2)c(Br)c1"
A. 1.79

Q. Supply hERG current change (%, negative = inhibition) at 10uM value. Item: "CCN(c1ccc(OC)cc1)S(=O)(=O)c1nnc(NC(=O)c2ccccc2Cl)s1"
A. 15.5

Q. Supply hERG current change (%, negative = inhibition) at 10uM value. Item: "O=C(Oc1ccc2ccc(=O)oc2c1)c1ccco1"
A. -73.1

Q. Supply hERG current change (%, negative = inhibition) at 10uM value. Item: "CSc1ccc(CCNC(=O)c2cc(-c3ccccc3)c(N3CCOCC3)s2)cc1"
A. -1.02

Q. Supply hERG current change (%, negative = inhibition) at 10uM value. Item: "COc1cc(CNC(C)C)ccc1OCC(=O)Nc1cccc2ccccc12"
A. -27.2

Q. Supply hERG current change (%, negative = inhibition) at 10uM value. Item: "Cc1noc(C)c1COc1ccc(C(=O)OCC(N)=O)cc1"
A. 18

Q. Supply hERG current change (%, negative = inhibition) at 10uM value. Item: "CCCc1ccc(-c2cc(C(=O)NC3=NCCS3)c3ccccc3n2)cc1"
A. -2.06

Q. Supply hERG current change (%, negative = inhibition) at 10uM value. Item: "O=C(Oc1ccc2ccccc2c1)c1ccco1"
A. 5.27
